B1: Azoarcus group I ribozyme (parent)
chain: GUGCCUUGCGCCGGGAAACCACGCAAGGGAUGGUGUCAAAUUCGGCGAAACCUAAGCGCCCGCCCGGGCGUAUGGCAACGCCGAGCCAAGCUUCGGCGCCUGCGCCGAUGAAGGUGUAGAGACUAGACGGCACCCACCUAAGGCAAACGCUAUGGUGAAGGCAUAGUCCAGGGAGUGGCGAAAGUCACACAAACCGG

Variants of: B1
Experiment: reverse-splicing fitness (ratio to wild type); higher = more active; in vitro selection; Mg2+ level not given
Short version: reverse-splicing fitness at least 0.01 is met, less is not met.

Some solved entries appear below for comparison.
C82G A111C A120C C150G U176A ... not met
C82G A111U A120C A145C C150A C169G U176A ... met
C82U A111G A120U A145G C150A U176G ... not met
C82G A145C C150A U176C ... met
C82A A120C A145C C150U C169A U176A ... met

Check if reverse-splicing fitness >= 0.01 (inclusive). Item: C82A A111C A120C C150A U176G not met

Identify whether the reported reverse-splicing fitness of the following variant is 0.01 or greater: C82A A111C A120U C150U U176C met
